# target: Human HER3, endogenous, on human cancer cell lines (SK-Br-3, MCF7, BT-474) (human, UniProt P21860 20-1342)
# Sequence (P21860 20-1342): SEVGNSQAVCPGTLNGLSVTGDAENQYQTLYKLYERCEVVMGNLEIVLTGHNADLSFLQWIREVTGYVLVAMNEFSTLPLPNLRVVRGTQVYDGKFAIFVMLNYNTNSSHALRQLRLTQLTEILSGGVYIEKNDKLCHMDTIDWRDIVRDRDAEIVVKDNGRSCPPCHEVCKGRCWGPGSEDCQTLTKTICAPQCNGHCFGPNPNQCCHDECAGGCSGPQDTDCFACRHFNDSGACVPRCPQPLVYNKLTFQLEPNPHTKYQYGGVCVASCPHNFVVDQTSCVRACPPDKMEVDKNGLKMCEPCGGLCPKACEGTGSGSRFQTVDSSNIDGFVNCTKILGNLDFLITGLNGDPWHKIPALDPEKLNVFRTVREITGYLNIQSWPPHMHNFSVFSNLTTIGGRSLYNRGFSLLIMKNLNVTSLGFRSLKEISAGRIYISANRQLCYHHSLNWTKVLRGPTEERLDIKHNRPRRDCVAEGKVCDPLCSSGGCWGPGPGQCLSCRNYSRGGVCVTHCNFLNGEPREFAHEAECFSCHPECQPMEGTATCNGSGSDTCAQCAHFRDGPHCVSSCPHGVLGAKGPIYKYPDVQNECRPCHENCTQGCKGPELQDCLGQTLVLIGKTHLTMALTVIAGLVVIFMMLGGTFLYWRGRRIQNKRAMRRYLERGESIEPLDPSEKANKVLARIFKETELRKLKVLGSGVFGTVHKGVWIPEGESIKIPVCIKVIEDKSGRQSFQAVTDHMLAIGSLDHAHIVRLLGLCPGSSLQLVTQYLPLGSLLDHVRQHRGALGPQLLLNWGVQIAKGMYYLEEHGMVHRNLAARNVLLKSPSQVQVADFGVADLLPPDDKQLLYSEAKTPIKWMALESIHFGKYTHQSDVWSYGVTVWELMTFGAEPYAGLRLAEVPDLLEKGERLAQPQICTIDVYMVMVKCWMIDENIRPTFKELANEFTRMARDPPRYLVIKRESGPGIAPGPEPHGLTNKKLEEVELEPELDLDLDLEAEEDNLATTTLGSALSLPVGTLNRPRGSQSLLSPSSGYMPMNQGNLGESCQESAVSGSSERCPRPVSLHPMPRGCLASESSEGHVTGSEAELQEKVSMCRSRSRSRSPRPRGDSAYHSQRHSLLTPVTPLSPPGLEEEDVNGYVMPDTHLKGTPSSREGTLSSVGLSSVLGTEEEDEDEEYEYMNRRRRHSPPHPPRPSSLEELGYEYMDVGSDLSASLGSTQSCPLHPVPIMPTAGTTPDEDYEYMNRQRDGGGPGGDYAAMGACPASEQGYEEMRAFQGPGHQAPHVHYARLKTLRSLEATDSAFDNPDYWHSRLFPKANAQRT
# test-method-notes: cell-based or functional assay
measured-quantity: BT474 pHER3 IC50 (pM)
Reply with just the number (in pM).

Can you look up the measured BT474 pHER3 IC50 of MOR12924 (antibody, human IgG1, kappa, V domains shown) VH: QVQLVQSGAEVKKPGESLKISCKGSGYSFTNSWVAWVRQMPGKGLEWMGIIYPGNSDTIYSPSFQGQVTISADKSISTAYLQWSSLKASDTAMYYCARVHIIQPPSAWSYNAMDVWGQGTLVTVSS VL: DIQMTQSPSSLSASVGDRVTITCRASQSISTYLNWYQQKPGKAPKLLIFGASNLQSGVPSRFSGSGSGTDFTLTISSLQPEDFATYYCQQSVWEPATFGQGTKVEIKR for me?
1590

# credit: patent US20130273029A1
